subjectOfTest: Leucine aminopeptidase (Plasmodium falciparum (isolate 3D7)) (UniProt Q8IL11)
Sequence (Q8IL11 whole entry, looked up): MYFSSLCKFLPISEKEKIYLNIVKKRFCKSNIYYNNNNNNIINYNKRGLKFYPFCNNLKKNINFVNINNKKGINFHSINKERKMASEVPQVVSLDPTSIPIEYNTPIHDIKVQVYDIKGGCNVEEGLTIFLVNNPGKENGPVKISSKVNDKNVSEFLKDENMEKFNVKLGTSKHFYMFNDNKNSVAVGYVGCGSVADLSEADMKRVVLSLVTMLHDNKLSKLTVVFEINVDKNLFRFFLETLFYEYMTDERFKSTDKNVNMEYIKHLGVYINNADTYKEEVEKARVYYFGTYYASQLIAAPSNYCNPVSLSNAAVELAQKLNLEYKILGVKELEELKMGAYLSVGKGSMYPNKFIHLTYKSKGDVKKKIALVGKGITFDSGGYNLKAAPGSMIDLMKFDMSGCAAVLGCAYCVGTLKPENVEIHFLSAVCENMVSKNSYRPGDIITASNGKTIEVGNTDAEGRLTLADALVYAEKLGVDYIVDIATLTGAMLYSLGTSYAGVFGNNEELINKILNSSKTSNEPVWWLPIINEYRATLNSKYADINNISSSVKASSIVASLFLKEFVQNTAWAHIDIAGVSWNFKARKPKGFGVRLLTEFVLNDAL
method: P. falciparum M17LAP inhibitors, primary screen, biochemical, fluorogenic H-Leu-NHMec substrate, 1536-well (AID 1619);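 also: plate controls were full reaction with DMSO carrier for no effect and no enzyme background for full effect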
conditionDetails: recombinant M17LAP, H-Leu-NHMec fluorogenic kinetic assay; at 30 µM; stronger effect = higher value
Among all 220,000 compounds or so, about 830 (0.38%) were called active. The list is a sample of the results. Potency and affinity values are given separately.
Hi there, I'd appreciate the recorded inhibition for every entry that follows.
Please respond with the number in % and leave the unit unwritten.

Ask: Read off the recorded inhibition for "Cc1ccc(-c2noc(CCC(=O)NCC3CCN(Cc4cccc(C)c4)CC3)n2)cc1"
Reply: -0.25

Ask: Give the reported value of inhibition for this record: "O=C(O)C1=C(C(=O)Nc2cc(C(F)(F)F)ccc2Cl)CCCC1"
Reply: 8.32

Ask: Given "CCN1CCN(C(=O)CSc2cc(=O)n(CC)c3ccccc23)CC1" , respond with its inhibition.
Reply: 4.46

Ask: Annotate the compound CCCSc1nc2c3c(sc2c(=O)[nH]1)CC(C)(CC)OC3 (centres undefined) with its measured inhibition.
Reply: -0.94

Ask: Please supply the value of reported inhibition for the item "CCc1nnc(NC(=O)C(C)C)s1"
Reply: -5.28

Ask: Give the value of inhibition reported for the following: O=C(O)C1CC=CCC1C(=O)NNc1c(Cl)cc(Cl)cc1Cl (centres undefined)
Reply: 3.9

Ask: # return recorded inhibition for input OCCC1CN(Cc2nc(-c3ccccc3)cs2)CCN1C1CCCC1 (centres undefined)
Reply: 7.26

Ask: Please give the documented inhibition of CC1=CC(C)C2C(=O)N(O)C(=O)C2C1 (centres undefined)
Reply: 1.69

Ask: Look up and state reported inhibition for "CCCCSc1nc(C)[nH]c1[N+](=O)[O-]"
Reply: -54.3

Ask: Could you please provide reported inhibition for "CCCCn1c(N)c(Br)c(=O)[nH]c1=O" ? Thanks!
Reply: 10

Ask: Tell us which inhibition value is on record for "Cc1cc(NCc2ccc3c(c2)OCO3)n2nc(C)nc2n1"
Reply: -0.05

Ask: Give a short answer stating reported inhibition for "Cc1ccccc1-c1cc(=O)c2c(O)cccc2o1" .
Reply: -7.05

Ask: Identify measured inhibition corresponding to CCc1c(O)nc(SCc2ccccc2)n(C(C)CC)c1=O (centres undefined)
Reply: 36.5

Ask: Quote inhibition reported for "CCO[C@@H]1OC(C(=O)N2CCOCC2)=C[C@H](c2coc3ccccc3c2=O)[C@H]1CCCO" please.
Reply: -0.63

Ask: Tell us which inhibition value is on record for "CCc1c(O)nc(SCC(=O)Nc2ccccc2)n(-c2ccccc2)c1=O"
Reply: -0.62

Ask: Look up and report measured inhibition for this entry: "CCc1ccc(C(=O)Nc2nnn(CC)n2)cc1"
Reply: 10.2

Ask: Give recorded inhibition. "CC(C)c1nnc(NC(=O)CSc2nc3ccccc3s2)s1"
Reply: -2.5

Ask: Supply reported inhibition belonging to this compound: CCc1nnc(NC(=O)C(CC)c2ccccc2)s1 (centres undefined)
Reply: -2.8

Ask: Give the value of inhibition reported for the following: "CS(=O)(=O)Nc1nnc(Cc2ccccc2)s1"
Reply: 9.67

Ask: Identify the reported inhibition for the following entry. "CCOc1ccc2[nH]c(=O)c(CN(CCO)C(=O)CC)cc2c1"
Reply: -5.26

Ask: Output measured inhibition for this item: "CCc1nc(SCC(=O)N2CCN(c3ccccc3)CC2)c2c(=O)n(C)c(=O)n(C)c2n1"
Reply: 3.46

Ask: Identify the reported inhibition for the following entry. CCC(Sc1nc2ccccc2s1)C(=O)Nc1nnc(C)s1 (centres undefined)
Reply: 22.9

Ask: Give the value of inhibition reported for the following: "COc1cc(/C=N/NC(N)=O)ccc1OC(=O)c1ccc(C)cc1"
Reply: -1.66

Ask: Please supply the value of reported inhibition for the item CCc1ccc(N(C(=O)c2snc(C(N)=O)c2N)C(C(=O)NCC2CCCO2)c2cccs2)cc1 (centres undefined)
Reply: -0.4
